Where do the numbers come from? From PubChem BioAssay (NCI).

Tested on: U251 CNS
Experiment: NCI tumour cell line growth inhibition, 48 h
assay readout: TGI

## Input What value of TGI has been reported for the following compound? CCCCCCCCCCCC(=O)OCCOCCOCCOCCOCCOCc1ccccc1
## Output > 100 µM

## Input # repeat for CC1CCC(n2c3cnccc3c3cnc(Nc4ccc5c(n4)CCN(C(=O)CO)C5)nc32)CC1 (stereo not given)
## Output > 100 µM

## Input // repeat for COc1ccccc1N1C(=O)C2c3[nH]c4ccccc4c3C3CCC(C(C)(C)C)CC3C2C1=O (stereo not given) and report
## Output > 100 µM

## Input Same lookup for C[C@@H]1CC[C@]2(C(=O)O)CC[C@]3(C)C(=CC[C@@H]4[C@@]5(C)CC[C@H](O)C(C)(C)[C@@H]5CC[C@]43C)[C@@H]2[C@]1(C)O , please.
## Output 27.3 µM
